Item-by-item account of Relative activity (%), KU812 IL-5 production
# tested.on: T1, ST2 on KU812 cells (UniProt Q01638 19-556, limits assumed)
# T1 sequence (looked up): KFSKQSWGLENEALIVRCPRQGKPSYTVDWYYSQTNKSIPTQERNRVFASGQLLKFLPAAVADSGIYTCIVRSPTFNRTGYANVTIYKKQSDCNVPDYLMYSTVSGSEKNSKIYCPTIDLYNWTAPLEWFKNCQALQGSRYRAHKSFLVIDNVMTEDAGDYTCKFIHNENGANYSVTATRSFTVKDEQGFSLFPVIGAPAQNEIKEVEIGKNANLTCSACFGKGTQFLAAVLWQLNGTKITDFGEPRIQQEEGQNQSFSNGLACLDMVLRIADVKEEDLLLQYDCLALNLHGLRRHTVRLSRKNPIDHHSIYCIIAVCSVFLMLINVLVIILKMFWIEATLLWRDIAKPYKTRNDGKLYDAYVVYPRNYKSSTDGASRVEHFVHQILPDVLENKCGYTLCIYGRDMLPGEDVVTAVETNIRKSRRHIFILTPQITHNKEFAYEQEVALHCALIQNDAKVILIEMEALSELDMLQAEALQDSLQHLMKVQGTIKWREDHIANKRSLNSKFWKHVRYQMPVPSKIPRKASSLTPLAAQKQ
# measurement.protocol: cell-based or functional assay
Answer with a number only, understood to be in %.

Answered examples (6):
## Input Would you mind telling me what Relative activity (%), KU812 IL-5 production value was observed for 5888-153H1+L2 (antibody, V domains shown, murine antibody) VH: QVQLQQSGAELVRPGASVTLSCKASGYTFTDYELHWVKQTPVHGLEWIGTIDPETGDTVYNQKFKAKAILTADKSSSTAYMEFRSLTSEDSAVCYCTRAFYNDYDDGFAYWGQGTLVTVSA VL: QIVMTQTPAIMSASPGEKVTMTCSVSSSVSYMHWYQQKSGTSPKRWIYDTSKLASGVPARFSGSGSGTSYSLTINNMEAEDAATYYCQQWNSSPLTFGAGTKLELK ?
## Output 115

## Input Cool, now 5886-156H+L (antibody, V domains shown, murine antibody) VH: DVQLQQSGPGLVKPSQSLSLTCTVTGYSITSDYAWNWIRQFPGNKLEWMGYIDYSGSTTYNPSLKSRFSITRDTSKNQFFLQLNSVTTEDTATYYCASTVIDSMDYWGQGTSVTVSS VL: DIVLTQSPASLAVSLGQRATISCRASKSVSTSGHSYMHWYQQKPGQPPKLLIYLASNLESGVPARFSGSGSGTDFTLNINPMEEEDAATYYCQHSREFPFTFGSGTKLEIK
## Output 304

## Input Subsequent entry: 5887-41H+L (antibody, V domains shown, murine antibody) VH: DVQLQQSGPGLVKPSQSLSLTCTVTGYSITSDYAWDWIRQFPGNKLEWMGYIRYSGDTYYNPSLKSRISITRDTSKNQFFLQLNSVTTEDTATYYCATTMMDTMDYWGQGTSVTVSS VL: DIVLTQSPASLTVSLGQRATISCRASKSVSTSGNSYMHWYQQKPGQPPKLLIYLASNLESGVPARFSGSGSGTDFTLNIHPVEEEDAATYYCQHSREFPLTFGAGTKLELK
## Output 128

## Input Queued: 5888-116H1+L1 (antibody, V domains shown, murine antibody) VH: QVQLQQSGAELVRPGASVTLSCKASGYTFTDSEMYWVRLTPVHGLEWIGAIDPETGDTAFNQKFKGKATLTADKSSSTAYMELRSLTSEDSVVYYCTRAFDNDNDDGFAYWGQGTLVTVSA VL: QIVMTQSPAIMSASPGEKVTMTCSASSSVNYMHWYQQKSGTSPKRWIYDTSKLASGVPARFSGSGSGTSYSLTISSMEAEDAATYYCQQWSSNPLTFGAGTKLELK
## Output 238

## Input Entry 5887-537H3+L1 (antibody, V domains shown, murine antibody; also called 5887-537H3H+L1) VH: QVTLKESGPGILQPSQTLSLTCSFSGFSLSTSGMGVGWIRQPSGKGLEWLAHIWWDDVKQYNPALKSRLTISKDTSSSQVFLKSASVDTADTATYYCARIGGDYDYFDFWGQGTTLTVSS VL: DIVLTQSPASLAVSLGQRATISCRASESVEYSGTSLMQWYQQKPGQPPKLLIYVASNVESGVPARFSGSGSGTDFSLNIHPVEEDDIAMYFCQQSRKVPWTFGGGTKLEIK please
## Output 767

## Input Field entry: 5888-379H1+L2 (antibody, V domains shown, murine antibody) VH: QIQLAQSGPELKKPGETVKISCKASGYTFINYGMNWVKQAPGKDLKWMGWINTYIGEPTYGDNFKGRFAFSLETSASTVYLQINNLKNEDTATYFCAREGDGFAYWGQGTLVTVSA VL: DIVMTQSPPSLSVSVGEKVTMSCKSSQSLLYSGNQNNYLAWYQQKPGQPPKLLIYGASTRESGVPDRFTGSGSGTDFTLTISSVQAEDLAVYYCQNDHSYPYTFGGGTKLEIK
## Output 19.2

// next item, Relative activity (%), KU812 IL-5 production requested
## Input State the recorded Relative activity (%), KU812 IL-5 production for this entry: 5888-357H+L (antibody, V domains shown, murine antibody) VH: QVQLQQSVTELVRPGASVTLSCKASGYRFTDSEMHWVKQTPVHGLEWIGTIDPETGGTVYNQKFKGKAKLTADRSSSTVSMELRSLTSEDSAVYYCTRAFYNDFDDGFAYWGQGTLVTVSA VL: QIVMTQSPAIMSASPGEKVTLTCSASTSVSYMHWYQQKSGTSPKRWIYDTSKLASGVPARFSGSGSGTSYSLTISSMEAEDAATYYCQQWSSNPLTFGAGTKLELK
## Output 98.5
